src = ChEMBL document CHEMBL5104151

Quick list: Activity per entry.
# Target desc: Serine/threonine-protein kinase pim-1 (Homo sapiens, UniProt P11309)
# Sequence (P11309 whole entry, looked up): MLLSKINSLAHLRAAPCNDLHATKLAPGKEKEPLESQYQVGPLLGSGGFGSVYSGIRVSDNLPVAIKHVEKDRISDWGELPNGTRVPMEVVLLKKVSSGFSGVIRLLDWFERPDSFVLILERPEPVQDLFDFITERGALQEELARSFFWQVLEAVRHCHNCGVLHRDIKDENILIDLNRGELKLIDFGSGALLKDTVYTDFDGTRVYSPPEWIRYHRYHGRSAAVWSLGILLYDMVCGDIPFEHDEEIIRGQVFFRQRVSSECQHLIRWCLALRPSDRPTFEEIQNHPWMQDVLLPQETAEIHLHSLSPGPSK
# Assay text: Inhibition of full-length human Pim-1 using RSRHSSYPAG as substrate incubated in presence of [gamma33P]ATP and assessed as residual activity at 10 uM relative to control
Express your answer in %, writing the number without its unit.

Example results:
Record smiles: O=C(O)c1cc2[nH]ncc2c2c1ncc1ccccc12
Quantity kind: Activity
Recorded value: 29
--
Record smiles: NC(=O)c1cc2[nH]ncc2c2c1ncc1ccccc12
Quantity kind: Activity
Recorded value: 7
--
Record smiles: O=[N+]([O-])c1cc2[nH]nc(I)c2c2c1ncc1ccccc12
Quantity kind: Activity
Recorded value: 1.4

// query State its Activity on Serine/threonine-protein kinase pim-1 (Homo sapiens, UniProt P11309): C=Cc1n[nH]c2cc([N+](=O)[O-])c3ncc4ccccc4c3c12
// result 1.5

// query State its Activity on Serine/threonine-protein kinase pim-1 (Homo sapiens, UniProt P11309): COC(=O)c1cc2[nH]ncc2c2c1ncc1ccccc12
// result 21

// query State its Activity on Serine/threonine-protein kinase pim-1 (Homo sapiens, UniProt P11309): FC(F)(F)c1cc2[nH]ncc2c2c1ncc1ccccc12
// result 18
